Values were extracted from the NTF2 design screens of Basanta et al. (2020).

experiment: protease stability score; higher = more stable; yeast display proteolysis, trypsin and chymotrypsin;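 further: log10 excess protease needed over predicted unfolded state with 0 meaning unfolded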
Readout: protease stability score

>>> print(df.to_string())
                     macromolecule_sequence                   readout  meas_value
0  DHEETFRKLLHDLDEAMRRGDTKRIQDLADENVQLEVGDKTIHGREEFAKFWMDLQKRVDHLELHVEHIHVSGDRIRAKIVLVFHHNGQTRTRSAQVVLVQENGRNVFTKIQFN  protease stability score        1.17
1  DEEQVKKVVEELLKAVHNGNVDQIKKIVKENVEFTLGDKTMKGQEDVEKDVKQLHDKGADFKVDEVEVTGDHATANTKWQIGDQKAHVQVHYQVRDDTVERVEVRWSEDAKKAIKQG  protease stability score      -0.141
2  DQEAAQDMRQWINAWNQNNPRKLRKLVDENARINIGEWHLQGRERIHKFAEKLIHEMDVQFSIKSFHVQGNKIKANLRIVANINGRPHEVNANLVVIVHNGHIKEIKATLDEDQIRHLNS  protease stability score       0.648
3  DEEDKADQFLRDLRQALQHNDENRMKELADKDARLNVGDKSVQGREQVVEHLVEKAKQVDDIKINIHTIKVHDGRFKFRATFVFNHNGKEESDEIVLVAHESNGKLKLLEVKEG  protease stability score        1.14
4  DEEKMEDFVRKLRTGDPKQMHDNVDKDATLTIGDKKWHGRERVATAIRKWLHRADHVRIDRYDIDGDHVRIDARVTFNGKNLKVVLEYRIHNGKVKSVVLKVTSTEVQRQIDKLLS  protease stability score        1.37
5  DEDDERQMEEVVETGDPDRMAENADPNVRVDVGDHEVHGRERAQKMWQQEKKQVDHLEVKEVHTENGRINADVVVVVNGRSLQVTVVASMHNGKIEYYSIQFTSEKQKKQWHDANG  protease stability score      -0.048
6  DHEFAKDAKEVLEENDFEREKQLFDKDASAHIGNTTYHGHEHVQTAIDIRKKRIDHREFHSITIHGDKVDVDLIVQFNGRKIRFDLTIQVHNGRVKEIKFQATNPSQERQLDEIMS  protease stability score        1.12

###

test: protease stability score; higher = more stable; yeast display proteolysis, trypsin and chymotrypsin;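 further: log10 excess protease needed over predicted unfolded state with 0 meaning unfolded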
Readout: protease stability score

>>> print(df.to_string())
                     macromolecule_sequence  meas_value
0  DEEDLDTVAQTFVTALKQGDPHQVMKLADEDVKATVGDERVHGSQHVNELIKRFRRNVDHVDIEDYRIHNGKIRMRVRLTVNGRTQNLNMVLIVRNGRLKMFKIDPQDVRQFHG       0.972
1  DEENKHAAERLMRAIQKGDPDDMVRNMDKDAKVNIGDQQFHGREEVAKQNRKDNKEMRYHQEVKSISVDGDKVTVEATAQFTYNGQPDTFKFSFRAHLHNGRIRHLDVHFDEQTKRDQES       0.101
2  DEDLAKRFVTFIKIMLNGDPDKLEKMMDENATVNVGDRRLTGHETIAKDLHRLINESRVHIQLRDFDVRPGRVELEFEAERKHDGRPHTSRFIVIVKDHNGKMVKIVVKQTK        1.02

###

assay: protease stability score; higher = more stable; yeast display proteolysis, trypsin and chymotrypsin;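 further: log10 excess protease needed over predicted unfolded state with 0 meaning unfolded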
Readout: protease stability score

>>> df
                      macromolecule_sequence  meas_value
 0  DEKESADRMIQRLQELMDQNNEEEIKNEVDENARAVVGDKEYHGDEQFAKALITVVKQYDHISIQIRSFTHTNGKNVATFEATFHHNGKNDTVKIEVVFDEVNGRHNLVRLVMK        1.22
 1  DEDKKADEFMKRWIDNLQNGNEDELRKLIDPNARLDIGDKTLHGREDIVHHLSETLKRVDHLEIRVEHIEVQGDKATFVYHITMRTNGRTHSSEVQFEAEEHNGNLIIKSIHER        1.57
 2  DDDKRKQFEDYMRKFKTGNEEDLVRNMDKDVDVHIGDKTWDGREEAAHELAQHRRHARIEYKSLSVDDKGDKLQVKMQYVDEHNGTPRDSHVVATLRLKNGKIRMIDVKRDG       -0.17
 3  DEEVKHSVDKYLQAVRQGDPDKLREMADENVTVDIGDTTYHGMSEYARRVVERQKKIRIHYDLKSLTVSGNHVKIDQEVVKHHNGKPERNRVTVIMHLNNGRIQSMSVKVDG       0.277
 4  DEKQLKKAADRMVKAMETGDPQQINRMADENVRVEVGDKRISGEEDINRWLKELSDQADHARVKSIDASGNTVRVEMTIVVNGRETKLTIHVHFENGTAHHVRFQKS       0.223
 5  DEEKMKEFVKNLNTGNNHRLRKMMDEDVKVVVGDKRYKGDEQAAQFWRRILEQADDIRVNDFKVSGNTAHVDVVINWNGKHIVLDVHVEIHNGKVKQIRIEVRDEEVKRAQEEMES        1.25
 6  DDEDNKRKAEEFVRLMHTGDEERIKELFDPNVKAVIGDKEYHGRDTVADWARRLREQADHFDVHRMTAQGDRVHVDMFVTHNGRTKRVVIVLKYHNGRVEEIKVQDG        2.28
 7  DEEDQKELADEMVKVLETGDEDRFSQLLDKDVNINVGDQTYSGSEQAVKWFRELLDNVDSFKFDRVRVNGDQLQIHAILDVNGHDIHVVFQVQFHNGRAQHLNMRYTDDEEKKRFDS        1.34
 8  DEHRVQTHAEEFMKLLQRGDEKSLADLMDPNASVKIGDKVYHGREQIRHAMRELRERVDHIHVKDIQAQGNHINVDFVLNVNGKHQKYELHVDFSNGRVKSLSMQTS        1.69
 9  DEDLERKAKKYIDALDTGDPDEVSKLVDPNVKFMYGDKTFHGRDQLRRIIQRISDQQRVHVDIKTFSAKGDKVEIKARIEVETDGRPRQFHAIYRMRVHNGKITHISVEMRQ        1.23
10  DEENQRLAEEFIRAFEKGNPDQAATMADPNVKIDIGEKRIHGHEELKKWIEELQRQMRVEVEHYEVEADGDKVIARLIFRQEHNGKPQEDKEQVNIRFHNGRAKSVTIRSTK       0.028
11  DEEDLKKLAKELEKAIKTGDPQKIVDMADPNAKAQIGDKEVHGQENLHEAMQKLSREVDHIEIRSLSIHGEKVELVFVLQVNGRKRTYTVEMTAHNGKITHMTWRHQ       0.284
12  DKELWEWFRRWLENYRTGNHNNIREMADPNVRMVVGDKHISGREHYAEEVSRQVHKLRVSLDFKDYDLRPNRVNVDAVIRMTSDGEPDQSKWSQTLQFSNGRLHQANVTMNQ       0.192
13  DEEQLDLNRRWMTALKTNNPDDAINLIDPNAKVHVGDKTLSGRENIKTYLKHLIHESRFRFRVQSMNAKNGQVDVSVKQTQSHNGQPSTNRIVVRMEVENGTITSNTIDSKS      -0.073
14  DEEEAKKVMEKWMKVVQKGDKDKVKKLYPPNVNWLNINTQKQGVEVVVKMMKQVQDKGAQFQVRRAEVKGDEAEMQYDLRIGDKTATFTVRIRAKGGQVEMVEVKVTEEAKKIVDTG       0.111
